Source listed as patent US20130225694A1.

Measured pIC50, listed per entry for reference.
- Measured target: RPE65 isomerohydrolase (Bos taurus, UniProt Q28175)
- Construct: Bovine RPE microsomes were used as a source of the RPE65 protein; from tissue; host or cells: bovine RPE microsomes
- Sequence (Q28175 whole entry): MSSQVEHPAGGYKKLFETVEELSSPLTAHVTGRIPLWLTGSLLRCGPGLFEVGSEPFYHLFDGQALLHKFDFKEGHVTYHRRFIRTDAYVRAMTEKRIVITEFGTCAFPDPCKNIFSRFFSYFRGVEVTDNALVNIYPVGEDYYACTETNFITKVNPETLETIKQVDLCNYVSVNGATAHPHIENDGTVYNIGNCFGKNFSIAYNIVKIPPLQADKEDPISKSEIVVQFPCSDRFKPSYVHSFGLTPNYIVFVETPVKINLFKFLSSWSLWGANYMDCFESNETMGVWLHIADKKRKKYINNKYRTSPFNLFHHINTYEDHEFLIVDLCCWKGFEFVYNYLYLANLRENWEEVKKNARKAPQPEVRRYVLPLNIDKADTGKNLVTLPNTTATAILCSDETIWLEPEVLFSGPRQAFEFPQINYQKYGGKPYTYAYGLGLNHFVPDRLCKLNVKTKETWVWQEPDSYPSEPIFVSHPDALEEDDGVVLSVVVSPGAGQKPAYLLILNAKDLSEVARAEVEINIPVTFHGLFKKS
- Measurement description: In vitro RPE65 isomerohydrolase assay with bovine RPE microsomes (Example 3)
- Assay type: biochemical
- Condition info: in vitro RPE65 isomerohydrolase IC50 values repeated in Table 7; read-out: IC50
Kindly note that pIC50 refers to -log10 of the concentration in mol/L and answer with the value alone.

| Molecule | pIC50 |
| --- | --- |
| CC(C)(C)/[N+]([O-])=C/c1ccc(C(F)(F)F)cc1 [Compound 3, 4-Trifluoromethylphenyl t-butyl nitrone] | 4.22 |

The record that follows has no pIC50 shown yet.
// pIC50 lookup, key: CC(C)(C)/[N+]([O-])=C/c1ccccc1F [Compound 7, 2-Fluorophenyl t-butyl nitrone]
2.89

###

- Test system: rhodopsin
- Measurement description: Rhodopsin regeneration after bleach in rats, IP nitrone
- Assay type: in vivo, rat
- Condition info: Rattus norvegicus; rats, 50 mg/kg IP, 2 h room light then 2.5 h dark adaptation
Observed property: inhibition at 50 mg/kg (%)
Use % as the unit, but write only the number.

| Compound | Test value |
| --- | --- |
| CC(C)(C)/[N+]([O-])=C/c1ccc(C(F)(F)F)cc1 [Compound 3, 4-Trifluoromethylphenyl t-butyl nitrone] | 82 |
| CC(C)(C)/[N+]([O-])=C/c1ccccc1 [Compound 1, α-phenyl-N-tert-butyl nitrone] | 83 |
| CC(C)(C)/[N+]([O-])=C/c1ccc(F)cc1 [Compound 2, 4-Fluorophenyl t-butyl nitrone] | 88 |

Requested field: inhibition at 50 mg/kg. Item: Cc1ccc(/C=[N+](\[O-])C(C)(C)C)cc1 [Compound 4, 4-Methylphenyl t-butyl nitrone]
54

###

- Measured target: chicken RPE65 (Gallus gallus, UniProt Q9YGX2)
- Construct: total lysate used
- Sequence (Q9YGX2 whole entry): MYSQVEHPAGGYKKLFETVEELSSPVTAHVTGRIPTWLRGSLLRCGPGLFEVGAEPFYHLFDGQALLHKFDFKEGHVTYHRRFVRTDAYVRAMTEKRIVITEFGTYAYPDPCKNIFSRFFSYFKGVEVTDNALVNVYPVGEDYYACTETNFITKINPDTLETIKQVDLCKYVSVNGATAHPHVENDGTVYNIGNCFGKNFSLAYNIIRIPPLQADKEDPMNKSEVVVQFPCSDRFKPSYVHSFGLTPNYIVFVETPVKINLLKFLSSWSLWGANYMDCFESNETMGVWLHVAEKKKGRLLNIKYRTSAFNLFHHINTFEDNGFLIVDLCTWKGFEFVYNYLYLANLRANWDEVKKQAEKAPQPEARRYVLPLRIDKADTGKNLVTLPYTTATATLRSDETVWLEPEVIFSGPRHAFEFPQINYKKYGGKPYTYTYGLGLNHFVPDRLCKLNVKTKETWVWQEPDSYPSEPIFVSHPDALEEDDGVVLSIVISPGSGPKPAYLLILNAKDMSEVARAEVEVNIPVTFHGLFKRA
- Measurement description: Liposome-based isomerohydrolase assay with recombinant chicken RPE65
- Condition info: all-trans-retinyl palmitate liposomes, 0.1 mM PBN; read-out: Ki (inhibition constant, uncompetitive formula)
Observed property: pKi
Reminder that pKi means the negative base-10 logarithm of the concentration expressed in mol/L.

Recorded pKi of CC(C)(C)/[N+]([O-])=C/c1ccccc1 [Compound 1, α-phenyl-N-tert-butyl nitrone] , please.
4.28

###

- Measured target: RPE65 isomerohydrolase (Bos taurus)
- Construct: Bovine RPE microsomes were used as a source of the RPE65 protein; from tissue; host or cells: bovine RPE microsomes
- Measurement description: In vitro RPE65 isomerohydrolase assay with bovine RPE microsomes (Example 3)
- Assay type: biochemical
- Condition info: apparent IC50; bovine RPE microsomes, all-trans-[3H] retinol substrate (Table 1); read-out: IC50 Values for the Inhibition of RPE65 Isomerohydrolase Reaction
Observed property: pIC50
Hey, just a heads up that pIC50 is the negative log base 10 of the concentration in molar.

Illustrative cases are given below, each with its answer.
| Test smiles | pIC50 |
| --- | --- |
| CC(C)(C)/[N+]([O-])=C/c1cccc(F)c1 | 3.55 |
| CC(C)(C)/[N+]([O-])=C/c1ccc(F)cc1 | 4.22 |

# next molecule below
Requested read-out: pIC50. Entry: CC(C)(C)/[N+]([O-])=C/c1ccccc1
4.00
